Test: gradient 5% acetonitrile 3 min, to 50% in 2 min, to 85% in 15 min, held 3 min, 100 µL/min
Conditions: column: Zorbax Extend-C18 2.1 x 50 mm; eluents: water / acetonitrile, 0.1% formic acid
Label scheme for RP-LC retention time: small value = under 700 s, mid value = from 700 s up to 800 s, large value = 800 s and over

Solved entries (count: 5):
| Compound | Answer Label |
| --- | --- |
| O=C(COc1ccccc1)Nc1nnc(C2=COCCO2)o1 | small value |
| Cn1cc(CCN2CCN(S(=O)(=O)c3cccc(C#N)c3)CC2)c2cccnc21 | small value |
| CCc1cccc(NC(=O)C2CCCN(S(=O)(=O)c3cn(C(C)C)cn3)C2)c1 (stereo not given) | large value |
| CCn1nccc1-c1cccc(-c2noc(CNC(=O)Cc3ccccc3)n2)c1 | large value |
| CCOc1ccc(-c2nc3ncccn3c2NCc2ccc(Cl)cc2)cc1OC | mid value |

[ask] Note: place this compound into its band. Item: COc1ccc(CCC(=O)NC(C)C(=O)Nc2nc3ccccc3[nH]2)cc1 (stereo not given)
[reply] small value

[ask] Form: Item = CCc1noc2nc(CCC(=O)NCCCN3CCCC(C)C3)nc(N3CCCCC3)c12 (stereo not given) ; Class = ?
[reply] small value

[ask] Assign a category based on measured RP-LC retention time for `CCCn1cc(C(=O)N2CCCC2)c2nn(-c3ccccc3)c(=O)c-2c1` and give only the class name.
[reply] small value

[ask] Returns: class label. Input: `CN(C)C1(CC2CC2)CCN(C(=O)C2CCCC2)CC1`
[reply] small value

[ask] # bin lookup: classify `Cc1ccc(-n2nc(C)c3c(C)c(CCC(=O)N4CCN(c5ccccn5)CC4)c(C)nc32)cc1` by its RP-LC retention time
[reply] mid value

[ask] Band assignment needed for `Fc1ccccc1-c1nc2ccccc2[nH]1` please.
[reply] small value

[ask] Category of `O=C(Nc1cnc(N2CCOCC2)nc1)c1ccc(F)cc1Cl` :
[reply] mid value

[ask] Class for CCNC(=O)N1CC(c2nc(-c3ccccc3)no2)C2(CCOCC2)C1 (stereo not given) ?
[reply] mid value

[ask] Form field 'band' for CCN(CCNC(=O)C1CCc2nc(N3CCOCC3)ncc2C1)c1ccccc1 (stereo not given)
[reply] small value

[ask] Determine which band this compound sits in: `O=C(c1cccc([N+](=O)[O-])c1)N1CCN(C(c2ccccc2)c2ccccc2)CC1`
[reply] mid value

[ask] Exam item: assign `CN(C)c1nc2cc(C(=O)N3CCOCC3)sc2n1-c1ccccc1` to the correct category.
[reply] small value

[ask] Lab log: Cc1ccc(Cl)cc1NC(=O)NC(C)C(=O)N1CCc2ccccc21 (stereo not given) — assign RP-LC retention time category
[reply] large value

[ask] Please report the category associated with `O=c1c2ccccc2n(Cc2nc(-c3ccc(F)cc3)no2)c(=O)n1Cc1ccco1` , nothing else.
[reply] large value

====

Collected RP-LC retention time values appear next to each entry.
Test: gradient 5% acetonitrile 3 min, to 50% in 2 min, to 85% in 15 min, held 3 min, 100 µL/min
Settings: column: Zorbax Extend-C18 2.1 x 50 mm; eluents: water / acetonitrile, 0.1% formic acid
Response body: numeric value in s, unit text excluded.

Reference set (2 entries):
| Molecule | Units Text | RP-LC retention time |
| --- | --- | --- |
| Cc1cc2c(cc1S(=O)(=O)N1CCCC1C(=O)Nc1ccccc1)OC(C)C(=O)N2 (centres undefined) | s | 777 |
| CC1CCN(C(=O)C2CCN(S(=O)(=O)c3ccc(-c4noc(C5CC5)n4)cc3)CC2)CC1 | s | 1040 |

[ask] Look up RP-LC retention time: `O=C(CSc1nccn1Cc1ccc2c(c1)OCO2)Nc1ccccc1F`
[reply] 621

[ask] Report RP-LC retention time for `O=C(CN1C(=O)c2ccccc2C1=O)N1CCc2ccccc2C1` please.
[reply] 755

[ask] Which value of RP-LC retention time has been reported for `CCN1CCCn2nc(C3CCN(S(=O)(=O)c4ccc(C)c(C)c4)CC3)cc2C1=O` in the records?
[reply] 891

[ask] Entry Cc1cc2c(cc1S(=O)(=O)N1CCCC1C(=O)N1CCN(C3CCCCC3)CC1)OCC(=O)N2 (centres undefined) : reported RP-LC retention time = ?
[reply] 584

[ask] Data request, read-out RP-LC retention time, for `CC(C)c1noc(-c2cccnc2N2CCCN(C(=O)NCc3ccccc3)CC2)n1`
[reply] 920

[ask] // lookup RP-LC retention time for `CCc1cccc(NC(=O)C2CCN(S(=O)(=O)c3ccc4c(c3)sc(=O)n4CC)CC2)c1`
[reply] 932

[ask] What value of RP-LC retention time has been recorded for this entry: `Cc1ccn2cc(-c3ccc(NC(=O)c4ccccc4Cl)cc3)nc2n1`
[reply] 652

====

Test: gradient 5% acetonitrile 3 min, to 50% in 2 min, to 85% in 15 min, held 3 min, 100 µL/min
Conditions: column: Zorbax Extend-C18 2.1 x 50 mm; eluents: water / acetonitrile, 0.1% formic acid
Define the label as True when RP-LC retention time is strictly less than 900 s and as False in all remaining cases.

Look over these answered cases.
| Compound | Answer Label |
| --- | --- |
| CC(=O)c1ccc(NC(=O)N2C[C@@H]3C[C@H]2C[C@@H]3NC(=O)c2ccccc2)cc1 | True |
| CCc1nnc(NC(=O)CSc2nnc(-c3ccc(Cl)cc3)o2)s1 | True |
| O=c1c2sccc2n(Cc2nc(-c3ccccc3)no2)c(=O)n1-c1ccc(F)cc1 | False |
| CCc1nc(-c2cc(S(=O)(=O)N3CCC(C(=O)N(CC)CC)CC3)c(C)s2)no1 | False |
| Cc1[nH]c(=O)[nH]c(=O)c1CC(=O)N1CCN(c2cccc(Cl)c2Cl)CC1 | True |

[ask] Does the reported RP-LC retention time of `COc1ccccc1N1CCN(C(=O)c2cn(-c3ccc(NC(=O)C4CC4)cn3)cn2)CC1` stay below 900 s?
[reply] True

[ask] Does the reported RP-LC retention time of `COc1ccc(OC)c(CN2CCn3c(nn(CC4CC4)c3=O)C2)c1` stay below 900 s?
[reply] True

[ask] Input Cc1ccc(C(=O)N2CCCC(COc3ccc(C(=O)NC(C)C)cc3)C2)cc1C (centres undefined) ; condition: RP-LC retention time strictly below 900 s. Does it hold?
[reply] False

====

Experiment: gradient 5% acetonitrile 3 min, to 50% in 2 min, to 85% in 15 min, held 3 min, 100 µL/min
Settings: column: Zorbax Extend-C18 2.1 x 50 mm; eluents: water / acetonitrile, 0.1% formic acid
param class (str): category from RP-LC retention time; see ranges Low (below 700 s), Mid (700 s to below 900 s), High (900 s or more)

[ask] State the band of CCCCC(=O)NC1(C(F)(F)F)C(=O)N(CCc2ccccc2)C(C)=C1C(C)=O (centres undefined)
[reply] High

[ask] State the band of `Cn1cnc(S(=O)(=O)N2CC(c3nc(CCOCc4ccccc4)no3)C2)c1`
[reply] Mid

====

Test: gradient 5% acetonitrile 3 min, to 50% in 2 min, to 85% in 15 min, held 3 min, 100 µL/min
Settings: column: Zorbax Extend-C18 2.1 x 50 mm; eluents: water / acetonitrile, 0.1% formic acid
Hi, to clarify the labels: 1 covers RP-LC retention time from 900 s upward, -1 covers anything below 900 s.

Example cases with answers are listed next.
| Molecule | Answer Label |
| --- | --- |
| CC(=O)N1CCCc2cc(S(=O)(=O)CCC(=O)Nc3ccc(Br)cc3C)ccc21 | -1 |
| CCCS(=O)(=O)c1nc2ccc(NS(=O)(=O)c3ccc4c(c3)CCC4)cc2s1 | 1 |
| O=C(NC1CCCC1)c1csc(-c2ccc(N3CCCCC3)nc2)n1 | 1 |
| CCCNC(=O)N1CCN(c2cc(-c3ccc(OC)c(OC)c3)ncn2)CC1 | -1 |
| COc1nc2ccccc2nc1N1CCCC(C(=O)Nc2ccccc2F)C1 (centres undefined) | 1 |
| Cc1cc(C)c2nc(C)cc(C(=O)NC(C)C)c2c1 | -1 |
| COc1ccc(NC(=O)c2cccn(C)c2=O)cc1N1CCCC1=O | -1 |
| CC(=O)Nc1ccc(-n2cnc(C(=O)NCc3ccccc3)c2)nc1 | -1 |
| CSc1ccc(CNC(=O)c2nnn3c2COC(c2ccc(F)cc2)C3)cc1 (centres undefined) | 1 |
| O=C(NCCc1ccncc1)c1ccc2c(c1)ncn2-c1ccccc1 | -1 |

[ask] RP-LC retention time >= 900 s for COc1ccc(-c2noc(CN3N=NC4C(=O)N(c5ccc(OC)c(OC)c5)C(=O)C43)n2)c(OC)c1 (centres undefined) ?
[reply] -1

[ask] # check: RP-LC retention time of `Cc1ccc(NC(=O)Cc2nnc3ccc(-c4nc(C)no4)cn23)c(C)c1` is greater than or equal to 900 s
[reply] -1

[ask] Decide: RP-LC retention time of COc1ccc(N2CC(c3noc(-c4cc(OC)cc(OC)c4)n3)CC2=O)cc1 (centres undefined) >= 900 s?
[reply] 1

[ask] Evaluate `CCOc1ccc(NC(=O)Cn2c(=O)n(-c3ccc(C)cc3)c(=O)c3c2cc(C)n3C)cc1` : RP-LC retention time at minimum 900 s?
[reply] -1

[ask] Please indicate if the recorded RP-LC retention time for `O=c1c2c(ccn1Cc1nc(-c3ccsc3)no1)ccn2CC1CC1` meets or exceeds 900 s.
[reply] 1
